Measured values drawn from patent US4618682A for this set.

# System: Gastric fistula rat
# Assay Comment: acute gastric fistula rat test (antisecretory screen)
# Assay type: in vivo, Female Sprague-Dawley rats
# Cond: intraduodenal, 20 mg/kg I.D., read-out: % Inhibition of gastric secretion
Structures can show the parent of a compound that is named as a salt.
Is inhibition in vivo at 20 mg/kg at least 80%? Then MET. If not, NOT MET.

                                   compound  assigned_label
0  NC1=NCCN1C(=O)Nc1cccc(C(F)(F)F)c1 [Example 26, Monohydrochloride Hemihydrate]             MET
1  Cl.NC1=NCCN1C(=O)Nc1c(Cl)cccc1Cl [Example 1, Monohydrochloride]         NOT MET
2           NC1=NCCN1C(=O)Nc1cc(Cl)cc(Cl)c1         NOT MET
3                   NC1=NCCN1C(=O)Nc1ccccc1             MET
4               COc1cccc(NC(=O)N2CCN=C2N)c1         NOT MET
5  NC1=NCCN1C(=O)Nc1c(Br)cccc1Br [Example 16, Monohydrochloride]         NOT MET
6  CCc1cccc(C)c1NC(=O)N1CCN=C1N.Cl [Example 17, Monohydrochloride]             MET
7  Cl.NC1=NCCN1C(=O)Nc1ccc(C(F)(F)F)cc1 [Example 14, Monohydrochloride]         NOT MET
8                Cc1ccc(NC(=O)N2CCN=C2N)cc1             MET

====

Listing of recorded inhibition in vivo at 20 mg/kg by entry.
# System: Gastric fistula rat
# Assay Comment: acute gastric fistula rat test (antisecretory screen)
# Assay type: in vivo, Female Sprague-Dawley rats
# Cond: intraduodenal, 20 mg/kg I.D., read-out: % Inhibition of gastric secretion
# Method: The principal antisecretory screen is the acute gastric fistula rat test which is carried out as follows: Female Sprague-Dawley rats are used for this study. The weights range from 125-250 gms; however, weights in any given test have a range of ±20 gms. The rats are fasted 24 hours before testing, water is given ad lib. […] The volume is read and a 1 ml aliquot of the supernatant is put into a beaker containing distilled water and titrated to pH 7 using 0.01 N NaOH. […]
Structures can show the parent of a compound that is named as a salt.
Measured Property: inhibition in vivo at 20 mg/kg (%)

>>> print(df.to_string())
                                   molecule  recorded_number
0  Cl.NC1=NCCN1C(=O)Nc1cccc(Cl)c1Cl [Example 10, Monohydrochloride]               70
1  Cc1cccc(C)c1NC(=O)N1CCN=C1N.Cl [Example 5, Monohydrochloride]               88
2  Cc1cccc(Cl)c1NC(=O)N1CCN=C1N [Example 15]               77
3  Cc1ccccc1NC(=O)N1CCN=C1N [Example 24, Monohydrochloride]               65
4  NC1=NCCN1C(=O)Nc1ccc(Cl)c(Cl)c1 [Example 8]               96
5  NC1=NCCN1C(=O)Nc1ccc(Cl)cc1 [Example 27]               95

====

# System: Gastric fistula rat
# Assay Comment: acute gastric fistula rat test (antisecretory screen)
# Type: in vivo, Female Sprague-Dawley rats
# Cond: intraduodenal, 20 mg/kg I.D., read-out: % Inhibition of gastric secretion
Structures can show the parent of a compound that is named as a salt.
Listing of recorded inhibition in vivo at 20 mg/kg by entry.
Measured Property: inhibition in vivo at 20 mg/kg (%)

                                   molecule               measured_property  recorded_number
0  NC1=NCCN1C(=O)Nc1ccccc1Cl [Example 3, Monohydrochloride]  inhibition in vivo at 20 mg/kg               82
1  Cl.NC1=NCCN1C(=O)Nc1cccc(Cl)c1.O [Example 11, Monohydrochloride Monohydrate]  inhibition in vivo at 20 mg/kg               77
2  Cl.NC1=NCCN1C(=O)Nc1ccc(Cl)cc1Cl [Example 9, Monohydrochloride]  inhibition in vivo at 20 mg/kg               71
3  Cl.NC1=NCCN1C(=O)Nc1c(Cl)cc(Cl)cc1Cl [Example 12, Monohydrochloride]  inhibition in vivo at 20 mg/kg               97
